This collection of values is drawn from PubChem BioAssay (NCI).

system: UO-31 renal; test: NCI-60 one-dose screen, 48 h (100 = growth as untreated, 0 = no growth, -100 = all killed); conditions: 10 µM unless noted
This is part of a sample that, as a whole, favours compounds with a hit. Of some 83,000 tested, about 20% had one in any assay.
Result Type: growth (%)
Answer in %, number only, no unit symbol.

Would you please look over these solved cases?
Compound | Result Units | growth
C#C[C@]1(O)CC[C@H]2[C@@H]3CC=C4c5sc(Nc6cc(F)ccc6F)nc5CC[C@]4(C)[C@H]3CC[C@@]21C | % | -98.3
O=C1NC(=O)C(Cn2cnc3ccccc32)N1 (stereo not drawn) | % | 92.6
C=C1C(=O)O[C@H]2[C@H]1CC/C(COC(=O)CSCC(=O)OC/C1=C/CC[C@@]3(C)O[C@H]3[C@H]3OC(=O)C(=C)[C@@H]3CC1)=C\CC[C@@]1(C)O[C@@H]21 | % | 3.4
Cc1c(C(=O)N[C@@H](Cc2ccccc2)C(=O)C(=O)NCc2ccc(F)cc2)[nH]c2ccccc2c1=O | % | 106

### Prompt Kindly state the measured growth obtained for O=C(O)CCC(=O)Nc1nnc(-c2ccccc2)s1 with UO-31 renal.
### Response 106

### Prompt Kindly state the measured growth obtained for C=CCc1cc(C)ccc1NC(C(=O)NCC(=O)OC)c1ccccc1 (stereo not drawn) with UO-31 renal.
### Response 80.6

### Prompt Kindly state the measured growth obtained for CCCCNC(=O)Oc1ccc(/C(=C(\C)c2ccc(Cl)cc2)c2ccc(OCCN3CCCCC3)cc2)cc1 with UO-31 renal.
### Response 58.8
